measurement-description: Oral bioavailability in mouse at 13 mg/kg
Assay type: ADME, organism-based
measurement-parameters: in vivo
measured-parameter: bioavailability (%)
Report as a plain number; the unit % is understood.

Query: Requested read-out: bioavailability. Entry: Cn1cc(Nc2nn3c(C(F)(F)c4ccc5ncccc5c4)nnc3s2)cn1
Result: 100

###

measurement-description: Half life in rat at 0.9 mg/kg, iv
Format: ADME, organism-based
measurement-parameters: in vivo
measured-parameter: half-life (h)
Report the value in h with no unit label.

Query: Given the entry Cn1cc(Nc2nn3c(C(F)(F)c4ccc5ncccc5c4)nnc3s2)cn1 , report its measured half-life.
Result: 1.4
